test system: S. aureus; assay: Disruption biofilm assay, bacterial; type: cell-based, Staphylococcus aureus; settings: Staphylococcus aureus, 24 h; disruption assay; S. aureus; 1% amino acid (unless specifically noted); p≤0.001; read-out: Reduce B Biofilm
Measured inhibition at 1 % by item

Solved cases (6 shown):
INSERT INTO measurements (compound, study_system, observed_result) VALUES
  ('N[C@@H](CC(=O)O)C(=O)O', 'S. aureus', '> 30%'),
  ('N[C@@H](CCSC[C@H](N)C(=O)O)C(=O)O', 'S. aureus', '10 to 30%'),
  ('NC(CCCC(=O)O)C(=O)O (stereo not shown)', 'S. aureus', '10 to 30%'),
  ('N[C@@H](CS)C(=O)O', 'S. aureus', '> 30%'),
  ('Cn1cncc1C[C@H](N)C(=O)O', 'S. aureus', '10 to 30%'),
  ('CC(C)[C@H](N)C(=O)O', 'S. aureus', '10 to 30%');

Could you now look at the following compound, please?
[ask] Specify inhibition at 1 % for N[C@@H](COP(=O)(O)O)C(=O)O and stop.
[reply] 10 to 30%
